assay: The compound was tested for inhibitory activity against vascular cell adhesion molecule (VCAM)-1 mediated cell adhesion in Human aortic endothelial cell culture, by using HAEC surface expression assay.; assay type: functional, cell-based

| molecule | IC50 [µM] |
| --- | --- |
| COc1ccc2c(c1)c(OC(C)C)c(C(N)=O)[s+]2[O-] (stereo unspecified) | 4 |

---

// reported pIC50 for each item listed
assay: The compound was tested for inhibitory activity against E-Selectin mediated cell adhesion in Human umbilical endothelial cell culture, by using HUVEC surface expression assay.; type: functional, cell-based
pIC50: −log10 of the molar value.

| molecule | pIC50 |
| --- | --- |
| CNC(=O)c1sc2ccc(OC)cc2c1OC(C)C | 5.85 |
| COc1ccc2oc(C(N)=O)c(OC(C)C)c2c1 | 5.10 |
| COc1ccc2c(c1)c(OC(C)C)c(C(N)=O)[s+]2[O-] (configuration not stated) | 5.18 |
| COc1ccc2[nH]c(C(N)=O)c(OC(C)C)c2c1 | 5.10 |
| CC(C)Oc1c(C(N)=O)sc2ccc(O)cc12 | 5.48 |
| COc1ccc2ccc(C(N)=O)c(OC(C)C)c2c1 | 5.07 |
| COc1ccc2c(c1)c(OC(C)C)c(C(N)=O)n2C | 5.04 |

---

experiment: The compound was tested for inhibitory activity against intercellular adhesion molecule (ICAM)-1 mediated cell adhesion in Human aortic endothelial cell culture, by using HAEC surface expression assay at 50 uM; format: functional
// reported inhibition at 50 µM for each item listed

| item.smiles | inhibition at 50 µM (%) |
| --- | --- |
| COc1ccc2c(c1)c(OC(C)C)c(C(N)=O)n2C | 92 |
| COc1ccc2ccc(C(N)=O)c(OC(C)C)c2c1 | 86 |
| CC(C)Oc1c(C(N)=O)sc2ccc(O)cc12 | 91 |
| COc1ccc2[nH]c(C(N)=O)c(OC(C)C)c2c1 | 89 |
| COc1cccc2c(OC(C)C)c(C(N)=O)sc12 | 21 |

---

assay: Cell adhesion measured using the inhibitory concentration against Human umbilical vein endothelial cell (HUVEC) activation, with Na51CrO4 as radioligand at 100 uM; format: functional
Mark NOT MET for inhibition at 100 µM values under 20%, and MET for everything at or above.

| compound | class.name |
| --- | --- |
| COc1ccc2c(OC(C)C)c(C(N)=O)sc2c1 | MET |
| COc1ccc2ccc(C(=O)Nc3ccccc3)c(OC(C)C)c2c1 | NOT MET |
| COc1ccc2sc(C(N)=O)c(Oc3ccccc3)c2c1 | MET |
| COc1ccc2c(c1)c(OC(C)C)c(C(=O)NCc1ccccc1)[s+]2[O-] (stereo unspecified) | NOT MET |
| CC(C)Oc1c(C(N)=O)sc2ccc(Cl)cc12 | MET |
| COc1ccc2sc(C(=O)NCCCCC(=O)O)c(OC(C)C)c2c1 | NOT MET |
| CC(C)Oc1c(C(N)=O)sc2ccc(OCc3ccccc3)cc12 | NOT MET |
| CC(C)Oc1c(C(N)=O)sc2ccc(N)cc12 | MET |
| COc1ccc2sc(C(=O)Nc3cccc(C(=O)O)c3)c(OC(C)C)c2c1 | MET |
| COc1ccc2sc(C(=O)Nc3ccccc3C(=O)O)c(OC(C)C)c2c1 | MET |
| COc1ccc2sc(C(=O)NCC(=O)O)c(OC(C)C)c2c1 | NOT MET |
